Target: PXR (NR1I2) (Homo sapiens)
Sequence (O75469 whole entry): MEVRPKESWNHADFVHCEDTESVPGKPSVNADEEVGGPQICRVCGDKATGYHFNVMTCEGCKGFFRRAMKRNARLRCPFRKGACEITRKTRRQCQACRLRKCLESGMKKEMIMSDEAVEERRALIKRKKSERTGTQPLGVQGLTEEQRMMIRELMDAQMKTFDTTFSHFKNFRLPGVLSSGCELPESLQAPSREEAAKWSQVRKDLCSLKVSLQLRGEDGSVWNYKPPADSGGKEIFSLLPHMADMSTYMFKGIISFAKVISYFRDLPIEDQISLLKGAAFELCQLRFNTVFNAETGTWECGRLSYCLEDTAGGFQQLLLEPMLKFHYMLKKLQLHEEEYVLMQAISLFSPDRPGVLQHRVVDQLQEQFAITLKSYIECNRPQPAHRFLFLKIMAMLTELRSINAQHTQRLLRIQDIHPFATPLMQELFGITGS
Test: NVS_NR_hPXR: Human PXR Fluormone PXR (SXR) green (cell-free HTS)
Type: binding
Please use yes (1) for NVS_NR_hPXR under 5 and no (0) for everything else, ties included.

| compound | class-label |
| --- | --- |
| CCCCC(CC)CN1C(=O)C2C3C=CC(C3)C2C1=O (centres unmarked) | yes (1) |
| O=S(=O)(O)C(F)(F)C(F)(F)C(F)(F)C(F)(F)C(F)(F)C(F)(F)C(F)(F)C(F)(F)F | yes (1) |
| CCCCOC(=O)c1ccccc1C(=O)O | yes (1) |
| N#CSCSc1nc2ccccc2s1 | no (0) |

----------
System: CYP2B6
Assay: CLZD_CYP2B6: Change in expression of CYP2B6 (primary human hepatocytes)
Type: cell-based
Details: 24 hr
endpoint-label: CLZD_CYP2B6_24

| molecule | endpoint-label | endpoint-result |
| --- | --- | --- |
| CCCN(CC)CC1COC2(CCC(C(C)(C)C)CC2)O1 (centres unmarked) | CLZD_CYP2B6_24 | 4.532 |
| CNc1cnn(-c2cccc(C(F)(F)F)c2)c(=O)c1Cl | CLZD_CYP2B6_24 | 4.975 |
| COc1nc(C)nc(NC(=O)NS(=O)(=O)c2ccccc2CCC(F)(F)F)n1 [r266] | CLZD_CYP2B6_24 | 5.694 |
| CCc1nn(C)c(C(=O)NCc2ccc(C(C)(C)C)cc2)c1Cl | CLZD_CYP2B6_24 | 5.278 |
| CCCN(CCC)c1c([N+](=O)[O-])cc(S(N)(=O)=O)cc1[N+](=O)[O-] | CLZD_CYP2B6_24 | 4.989 |

----------
Target: LXRb (NR1H2) (Homo sapiens)
Construct: expressed in transfected cells; host or cells: HepG2
Sequence (P55055 whole entry): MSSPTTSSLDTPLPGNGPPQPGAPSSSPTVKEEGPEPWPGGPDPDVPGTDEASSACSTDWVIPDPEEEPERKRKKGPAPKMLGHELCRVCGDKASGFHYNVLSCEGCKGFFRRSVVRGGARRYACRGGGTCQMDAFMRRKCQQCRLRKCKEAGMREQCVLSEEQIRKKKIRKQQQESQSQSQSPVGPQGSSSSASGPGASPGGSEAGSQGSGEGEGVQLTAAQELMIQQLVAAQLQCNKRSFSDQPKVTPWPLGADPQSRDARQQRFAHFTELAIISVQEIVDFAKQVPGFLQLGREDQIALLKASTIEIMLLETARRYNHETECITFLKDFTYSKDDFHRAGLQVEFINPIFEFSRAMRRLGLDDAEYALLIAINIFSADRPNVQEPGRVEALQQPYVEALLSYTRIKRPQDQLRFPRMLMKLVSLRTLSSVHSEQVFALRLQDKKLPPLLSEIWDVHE
Test: ATG_LXRb_TRANS: Factorial reporter gene assay (HepG2)
Format: cell-based
Details: HepG2 reporter

| compound | ATG_LXRb_TRANS |
| --- | --- |
| CC/C(=N\OC/C=C/Cl)C1=C(O)CC(C2CCOCC2)CC1=O (stereo not shown) | 4.194 |
| Cc1cc(C)nc(Nc2ccccc2)n1 | 4.237 |
| CCc1nn(C)c(C(=O)NCc2ccc(C(C)(C)C)cc2)c1Cl | 6.337 |
| Cc1[nH]c(=O)n(C(C)(C)C)c(=O)c1Cl | 4.119 |

----------
Test system: CYP2B6
Experiment: CLZD_CYP2B6: Change in expression of CYP2B6 (primary human hepatocytes)
Type: cell-based
Conditions: 24 hr, scale not given, looks like -log10 of molar active concentration, 0 = no activity
Please use yes for CLZD_CYP2B6_24 under 5 and no for everything else, ties included.

| molecule | class-label |
| --- | --- |
| CCCCOCN(C(=O)CCl)c1c(CC)cccc1CC [r46] | no |
| COc1ccc(-c2ccccc2)cc1NNC(=O)OC(C)C [r38] | no |
| CC(C)N1C(=O)N(c2ccccc2)CS/C1=N\C(C)(C)C [r45] | no |
| Nc1cnn(-c2ccccc2)c(=O)c1Cl [r56] | yes |

----------
Tested on: CYP3A4
Assay: CLZD_CYP3A4: Change in expression of CYP3A4 (primary human hepatocytes)
Assay type: cell-based
Details: 24 hr, scale not given, looks like -log10 of molar active concentration, 0 = no activity
Property: CLZD_CYP3A4_24; scope: individual compounds
endpoint-label: CLZD_CYP3A4_24

| compound | measured-target | endpoint-label | endpoint-result |
| --- | --- | --- | --- |
| CC(C)(c1ccc(O)cc1)c1ccc(O)cc1 [r40] | CYP3A4 | CLZD_CYP3A4_24 | 0 |
| Nc1cnn(-c2ccccc2)c(=O)c1Cl [r56] | CYP3A4 | CLZD_CYP3A4_24 | 0 |
| CC1=C(C(=O)Nc2ccccc2)SCCO1 [r53] | CYP3A4 | CLZD_CYP3A4_24 | 5.078 |
| O=C(Nc1ccccc1-c1ccc(Cl)cc1)c1cccnc1Cl [r42] | CYP3A4 | CLZD_CYP3A4_24 | 4.98 |
| CCC(C)Nc1c([N+](=O)[O-])cc(C(C)(C)C)cc1[N+](=O)[O-] (stereo not drawn) [r48] | CYP3A4 | CLZD_CYP3A4_24 | 5.288 |
| CC(C)N1C(=O)c2ccccc2NS1(=O)=O [r37] | CYP3A4 | CLZD_CYP3A4_24 | 0 |

----------
Property: NCGC_PXR_Agonist_human; scope: individual compounds
Biological target: PXR Human (NR1I2) (Homo sapiens, UniProt O75469)
Sequence (O75469 146-434 limits assumed): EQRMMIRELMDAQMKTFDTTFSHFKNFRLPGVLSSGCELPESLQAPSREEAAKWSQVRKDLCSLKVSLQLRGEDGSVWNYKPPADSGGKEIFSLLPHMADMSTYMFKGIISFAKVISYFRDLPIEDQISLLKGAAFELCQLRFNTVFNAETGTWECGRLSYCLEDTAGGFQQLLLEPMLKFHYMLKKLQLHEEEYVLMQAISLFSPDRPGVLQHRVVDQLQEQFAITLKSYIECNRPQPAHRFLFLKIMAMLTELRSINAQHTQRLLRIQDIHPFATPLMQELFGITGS
Assay: NCGC_PXR_Agonist_human: GAL4 BLAM Reporter gene assay: PXR Human
Format: cell-based
Settings: agonist mode; scale not given, looks like -log10 of molar active concentration; 0 = no activity
Description: These assays measure binding constants and enzyme inhibition values for nuclear receptors. The targets include [drawing 67] , [drawing 68] , [drawing 69] , [drawing 70] , [drawing 71] , [drawing 72] , [drawing 73] , [drawing 74] , [drawing 75] and [drawing 76] . Each of the nuclear receptor targets was measured in agonist mode. Assays were run at the NIH Chemical Genomics Center (Rockville, MD). […]
endpoint-label: NCGC_PXR_Agonist_human

| compound | endpoint-label | endpoint-result |
| --- | --- | --- |
| CC(C)N1C(=O)c2ccccc2NS1(=O)=O [r37] | NCGC_PXR_Agonist_human | 0 |
| CCC(C)n1c(=O)[nH]c(C)c(Br)c1=O (stereo not drawn) [r43] | NCGC_PXR_Agonist_human | 0 |
| CNC(=O)Oc1cccc2ccccc12 [r52] | NCGC_PXR_Agonist_human | 0 |
| CC(C)N1C(=O)N(c2ccccc2)CS/C1=N\C(C)(C)C [r45] | NCGC_PXR_Agonist_human | 4.937 |
| Cc1c(COC(=O)C2C(/C=C(\Cl)C(F)(F)F)C2(C)C)cccc1-c1ccccc1 (stereo not drawn) [r39] | NCGC_PXR_Agonist_human | 4.546 |
| CC(C)OC(=O)Nc1cccc(Cl)c1 [r59] | NCGC_PXR_Agonist_human | 0 |
| COC(=O)c1ccccc1CS(=O)(=O)NC(=O)Nc1nc(OC)cc(OC)n1 [r33] | NCGC_PXR_Agonist_human | 0 |
| C=CCOC(=O)C(C)(C)OC(=O)c1cc(-n2c(=O)cc(C(F)(F)F)n(C)c2=O)ccc1Cl [r47] | NCGC_PXR_Agonist_human | 0 |
| CCOC(=O)C(Cl)Cc1cc(-n2nc(C)n(C(F)F)c2=O)c(F)cc1Cl (stereo not drawn) [r54] | NCGC_PXR_Agonist_human | 0 |
| OB(O)O [r41] | NCGC_PXR_Agonist_human | 0 |
| O=C1C2CC=CCC2C(=O)N1SC(Cl)(Cl)Cl (stereo not drawn) [r51] | NCGC_PXR_Agonist_human | 0 |
| CCCCOCN(C(=O)CCl)c1c(CC)cccc1CC [r46] | NCGC_PXR_Agonist_human | 5.71 |

----------
Biological target: AHR (aryl hydrocarbon receptor) (Homo sapiens)
Construct: endogenous in cells; host or cells: HepG2
Sequence (P35869 11-848): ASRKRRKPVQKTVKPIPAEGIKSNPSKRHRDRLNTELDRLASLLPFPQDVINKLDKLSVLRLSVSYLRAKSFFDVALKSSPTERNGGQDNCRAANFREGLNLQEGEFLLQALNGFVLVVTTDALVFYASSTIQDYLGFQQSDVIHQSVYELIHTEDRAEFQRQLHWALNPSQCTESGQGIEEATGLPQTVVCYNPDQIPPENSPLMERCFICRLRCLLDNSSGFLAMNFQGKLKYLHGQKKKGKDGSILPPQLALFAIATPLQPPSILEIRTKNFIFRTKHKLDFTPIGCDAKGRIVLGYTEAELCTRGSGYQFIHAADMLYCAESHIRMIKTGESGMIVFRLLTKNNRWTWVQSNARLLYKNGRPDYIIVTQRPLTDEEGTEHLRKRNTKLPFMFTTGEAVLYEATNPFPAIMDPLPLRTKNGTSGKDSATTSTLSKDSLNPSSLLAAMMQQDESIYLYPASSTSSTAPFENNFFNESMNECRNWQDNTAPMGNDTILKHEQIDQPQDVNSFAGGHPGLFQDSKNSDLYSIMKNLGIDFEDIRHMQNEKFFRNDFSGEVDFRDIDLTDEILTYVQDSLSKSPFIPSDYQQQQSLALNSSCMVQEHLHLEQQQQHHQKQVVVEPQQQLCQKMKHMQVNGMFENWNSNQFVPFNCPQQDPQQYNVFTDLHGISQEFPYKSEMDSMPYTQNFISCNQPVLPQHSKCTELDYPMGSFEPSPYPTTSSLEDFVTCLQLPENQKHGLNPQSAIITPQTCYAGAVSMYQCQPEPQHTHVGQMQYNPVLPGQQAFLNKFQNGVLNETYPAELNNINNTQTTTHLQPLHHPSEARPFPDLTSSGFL
Assay: ATG_Ahr_CIS: Factorial reporter gene assay (multiplexed transcription reporter, HepG2)
Format: cell-based
Settings: HepG2
Property: ATG_Ahr_CIS; scope: individual molecules
endpoint-label: ATG_Ahr_CIS

| molecule | endpoint-result |
| --- | --- |
| CCC(=O)C1C(=O)CC(C(=O)[O-])CC1=O.CCC(=O)C1C(=O)CC(C(=O)[O-])CC1=O.[Ca+2] (stereo not drawn) | 4.215 |
| CCCC1COC(Cn2cncn2)(c2ccc(Cl)cc2Cl)O1 (stereo not drawn) | 4.367 |
| CCN(CC)C(=O)C(C)Oc1cccc2ccccc12 (stereo not drawn) | 4.456 |
| COC(=O)c1ccccc1S(=O)(=O)NC(=O)Nc1nc(C)nc(OC)n1 | 4.337 |
| CC1(C)C(C=C(Cl)Cl)C1C(=O)OCc1cccc(Oc2ccccc2)c1 (stereo not drawn) | 4.125 |
| Nc1c(Cl)c(Cl)nc(C(=O)O)c1Cl | 4.523 |

----------
Target: ESR1 (estrogen receptor 1) (Homo sapiens, UniProt P03372)
Construct: expressed in transfected cells; host or cells: HepG2
Sequence (P03372 whole entry): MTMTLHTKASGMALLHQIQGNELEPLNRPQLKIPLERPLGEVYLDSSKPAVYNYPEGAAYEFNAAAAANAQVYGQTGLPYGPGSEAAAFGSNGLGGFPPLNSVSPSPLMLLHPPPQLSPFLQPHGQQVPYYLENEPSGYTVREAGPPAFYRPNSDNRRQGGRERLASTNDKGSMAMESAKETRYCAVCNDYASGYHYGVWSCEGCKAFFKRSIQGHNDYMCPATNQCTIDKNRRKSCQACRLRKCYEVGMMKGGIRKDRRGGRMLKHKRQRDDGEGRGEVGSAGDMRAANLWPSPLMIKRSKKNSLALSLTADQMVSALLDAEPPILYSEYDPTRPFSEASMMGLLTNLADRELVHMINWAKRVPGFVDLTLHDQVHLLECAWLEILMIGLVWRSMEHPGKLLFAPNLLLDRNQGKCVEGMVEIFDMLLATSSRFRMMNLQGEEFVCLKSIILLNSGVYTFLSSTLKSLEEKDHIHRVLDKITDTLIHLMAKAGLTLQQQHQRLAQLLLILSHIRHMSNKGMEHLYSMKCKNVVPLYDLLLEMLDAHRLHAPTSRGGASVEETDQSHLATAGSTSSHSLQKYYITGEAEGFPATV
Experiment: ATG_ERa_TRANS: Factorial reporter gene assay (HepG2)
Format: cell-based
Conditions: HepG2; scale not given, looks like -log10 of molar active concentration; 0 = no activity

| compound | ATG_ERa_TRANS |
| --- | --- |
| CCCCOCN(C(=O)CCl)c1c(CC)cccc1CC | 0 |
| COC(=O)c1ccccc1CS(=O)(=O)NC(=O)Nc1nc(OC)cc(OC)n1 | 0 |
| CC(C)N1C(=O)N(c2ccccc2)CS/C1=N\C(C)(C)C | 0 |
| COc1cc(Cl)c(OC)cc1Cl | 0 |
| OB(O)O | 0 |
| O=C1C2CC=CCC2C(=O)N1SC(Cl)(Cl)Cl (stereo not drawn) | 0 |
| C=CCOC(=O)C(C)(C)OC(=O)c1cc(-n2c(=O)cc(C(F)(F)F)n(C)c2=O)ccc1Cl | 0 |
| N#Cc1cc(Br)c(O)c(Br)c1 | 4.432 |
| COc1nc(C)nc(NC(=O)NS(=O)(=O)c2ccccc2Cl)n1 [r62] | 0 |
| COc1ccc(-c2ccccc2)cc1NNC(=O)OC(C)C | 0 |
| CCSC(=O)N(CC(C)C)CC(C)C | 0 |
| CC(C)(c1ccc(O)cc1)c1ccc(O)cc1 | 5.959 |

The reported numbers originate from paper PMC3038857.
